Target: 5-hydroxytryptamine receptor 2A (Homo sapiens) (UniProt P28223)
Sequence (P28223 whole entry, looked up): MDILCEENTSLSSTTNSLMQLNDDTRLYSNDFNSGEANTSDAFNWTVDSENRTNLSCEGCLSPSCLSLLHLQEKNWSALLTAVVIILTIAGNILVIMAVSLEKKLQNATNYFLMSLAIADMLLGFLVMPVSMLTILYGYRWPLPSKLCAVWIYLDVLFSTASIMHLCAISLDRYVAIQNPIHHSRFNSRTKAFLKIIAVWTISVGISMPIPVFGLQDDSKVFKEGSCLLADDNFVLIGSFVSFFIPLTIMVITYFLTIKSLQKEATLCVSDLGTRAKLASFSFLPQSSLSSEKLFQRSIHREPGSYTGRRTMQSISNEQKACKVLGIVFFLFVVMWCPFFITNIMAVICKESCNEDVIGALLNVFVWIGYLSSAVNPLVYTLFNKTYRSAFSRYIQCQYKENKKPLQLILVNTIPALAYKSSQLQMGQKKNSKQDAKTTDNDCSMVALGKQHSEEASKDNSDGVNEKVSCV
Experiment: 5-hydroxytryptamine receptor 2A (HTR2A) small molecule antagonists, cell-based qHTS assay (AID 1963586); further: nearly all actives have a fitted effect of over 45% in size
Details: HTR2A-CHO cells, DOI-induced calcium flux, fluorescence; series mostly up to 61.5 µM
Inconclusive results are not listed. The source made the active and inactive calls. The call rests on the fitted dose curve.
Possible outcomes: active, inactive

{"columns": ["Compound", "Discrete Label"],
 "data": [
  ["CC(=O)C(=O)CC(C)C", "inactive"],
  ["COC=O", "active"],
  ["Cc1oc2c(NC(=O)c3c(Cl)cccc3Cl)cccc2c1C(C)(C)O", "inactive"],
  ["O=C(O)c1nc(Cl)c(Cl)c(Cl)c1Cl", "inactive"],
  ["Nc1ccc([N+](=O)[O-])cc1O", "inactive"],
  ["C#CC(O)C(CC)CCCC (configuration not stated)", "inactive"],
  ["Nc1c(I)cc(I)c(C(=O)N(CCC(=O)O)c2ccccc2)c1I", "inactive"],
  ["CCCCOC(=O)CCCCC(=O)OCCCC", "inactive"],
  ["CC(C)(C)C1CCCCC1=O (configuration not stated)", "inactive"],
  ["c1ccc2c(c1)-c1ccc3ccc4cccc5cc-2c1c3c45", "inactive"],
  ["CC1=CCC(C(C)C)C=C1 (configuration not stated)", "inactive"],
  ["C[C@H]1[C@@H](c2ccccc2)NC(=O)N1C", "inactive"],
  ["CCN(CC)CCNC(=O)COc1ccc(OC)cc1", "inactive"],
  ["O=C(OCCOCCOCCOC(=O)c1ccccc1)c1ccccc1", "inactive"],
  ["CCCOC(=O)CC", "inactive"],
  ["NC(=O)N(O)[C@@H]1COc2cc(OCc3ccccc3)ccc21", "inactive"],
  ["CCCCC(CC)COC(=O)c1ccccc1 (configuration not stated)", "inactive"],
  ["CC(C)Cn1cnc2c1c(=O)n(C)c(=O)n2C", "inactive"],
  ["COc1cc(C=C2CCC/C(=C\\c3ccc(O)c(OC)c3)C2=O)ccc1O", "active"],
  ["Brc1ccccc1-c1ccccc1", "active"],
  ["O=C(NCc1ncc(C(F)(F)F)cc1Cl)c1c(Cl)cccc1Cl", "inactive"],
  ["c1ccc(OCc2ccc(CCCN3CCOCC3)cc2)cc1", "active"],
  ["CCCCN1C[C@H](O)[C@@H](O)[C@H](O)[C@H]1CO", "inactive"],
  ["COC(=O)CC(=O)C(C)(C)C", "inactive"],
  ["O=C1OC(=O)c2cc(-c3ccc4c(c3)C(=O)OC4=O)ccc21", "inactive"],
  ["Cc1ccc(O)c(C(=O)c2ccccc2)c1", "inactive"],
  ["C=C[Si](OC(C)=O)(OC(C)=O)OC(C)=O", "inactive"],
  ["CN1CCCN=C1/C=C/c1cccs1", "inactive"],
  ["COc1ccccc1N1CCN(CC(O)COc2cccc3ccccc23)CC1 (configuration not stated)", "active"],
  ["CC(C)CCCCCCN", "inactive"],
  ["O=C(O)c1ccc(O)c(O)c1", "inactive"],
  ["CC(=O)NNC(C)=O", "inactive"],
  ["CC[C@]12CCCN3CCc4c(n(c5ccccc45)C(=O)C1)[C@@H]32", "inactive"],
  ["O=S(=O)(O)c1cc(S(=O)(=O)O)c2c(N=Nc3ccccc3)c(O)ccc2c1", "inactive"],
  ["C[C@]12C(=O)OC(=O)[C@H]1[C@H]1C=C[C@@H]2C1", "inactive"],
  ["Cc1nc2c([nH]1)c(=O)n(C)c(=O)n2Cc1ccco1", "inactive"],
  ["CCC(=O)OCCC(C)CCC=C(C)C (configuration not stated)", "inactive"],
  ["CN1CC(=O)N2[C@H](c3ccc4c(c3)OCO4)c3[nH]c4ccccc4c3C[C@@H]2C1=O", "inactive"],
  ["CC(C)(C)C(O)/C=C/c1ccc2c(c1)OCO2 (configuration not stated)", "inactive"],
  ["CC/C=C\\CCOC(C)OCC (configuration not stated)", "inactive"],
  ["COCCc1ccc(OCC2CO2)cc1 (configuration not stated)", "inactive"],
  ["C[C@H](NC(CCc1ccccc1)C(=O)O)C(=O)N1CCC[C@H]1C(=O)O (some centres not stated)", "inactive"]
]}
